# Target of assay: UniProtKB P09211
# Sequence (P09211 2-210 limits assumed): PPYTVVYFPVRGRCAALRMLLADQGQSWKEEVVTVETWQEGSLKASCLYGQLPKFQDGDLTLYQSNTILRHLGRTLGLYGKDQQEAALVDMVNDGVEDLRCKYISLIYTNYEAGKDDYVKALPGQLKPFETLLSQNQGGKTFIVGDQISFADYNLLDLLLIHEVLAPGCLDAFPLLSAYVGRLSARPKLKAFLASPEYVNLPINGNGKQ
# Protocol description: Enzyme kinetic analysis with GST P1 (GSH- and CDNB-dependent Michaelis-Menten / Lineweaver-Burk), Ki inhibition constants
# Type: biochemical
# Run conditions: non-competitive type; Figure 2; read-out: Ki inhibition constant against GSH
Experimental readout: Ki (nM)
All answers are understood in nM, so give the number only.

Exercise: Give its Ki value. Item: S=c1[nH]nc(C2CCc3[nH]c4ccccc4c3C2)[nH]1 (stereo not shown)
Solution: 1740
